System: HEK293T/ACE2 cells
Conditions: human
Structures can show the parent of a compound that is named as a salt.
Please go through the items and note down their rVSVΔG-GFP/SARS2-S Hoechst (%).
Reply numerically in %, unit not repeated.

**Query** Return rVSVΔG-GFP/SARS2-S Hoechst (%) for the following compound: CN[C@H]1CC[C@@H](c2ccc(Cl)c(Cl)c2)c2ccccc21 [Sertraline hydrochloride]
**Result** 101.27

**Query** Return rVSVΔG-GFP/SARS2-S Hoechst (%) for the following compound: COc1cc2c(Nc3ccc(Br)cc3F)ncnc2cc1OCC1CCN(C)CC1 [Vandetanib (ZD6474), Vandetanib]
**Result** 104.11

**Query** Return rVSVΔG-GFP/SARS2-S Hoechst (%) for the following compound: CN(C)CCOc1ccc(/C(=C(/CCCl)c2ccccc2)c2ccccc2)cc1 [Toremifene citrate]
**Result** 99.98

**Query** Return rVSVΔG-GFP/SARS2-S Hoechst (%) for the following compound: CC[C@H]1OC(=O)[C@H](C)[C@@H](O[C@H]2C[C@@](C)(OC)[C@@H](O)[C@H](C)O2)[C@H](C)[C@@H](O[C@@H]2O[C@H](C)C[C@H](N(C)C)[C@H]2O)[C@](C)(O)C[C@@H](C)CN(C)[C@H](C)[C@@H](O)[C@]1(C)O [Azithromycin dihydrate]
**Result** 100.22

**Query** Return rVSVΔG-GFP/SARS2-S Hoechst (%) for the following compound: CN1CCC[C@@H]1CCO[C@](C)(c1ccccc1)c1ccc(Cl)cc1 [Clemastine fumarate]
**Result** 106.94

* * *

System: HEK293T/ACE2 cells
Conditions: human
Where a name gives a salt, the structure may show the parent alone.
Assay metric: rVSVΔG-GFP/VSVG Hoechst (%)
Reply numerically in %, unit not repeated.

**Query** Give the observed rVSVΔG-GFP/VSVG Hoechst (%) of CSc1ccc2c(c1)N(CCC1CCCCN1C)c1ccccc1S2 (stereo not shown) [Thioridazine hydrochloride] for HEK293T/ACE2 cells.
**Result** 95.38

**Query** Give the observed rVSVΔG-GFP/VSVG Hoechst (%) of CN1CCC[C@@H]1CCO[C@](C)(c1ccccc1)c1ccc(Cl)cc1 [Clemastine fumarate] for HEK293T/ACE2 cells.
**Result** 101.47

**Query** Give the observed rVSVΔG-GFP/VSVG Hoechst (%) of COc1cc2c(Nc3ccc(Br)cc3F)ncnc2cc1OCC1CCN(C)CC1 [Vandetanib (ZD6474), Vandetanib] for HEK293T/ACE2 cells.
**Result** 99.04

**Query** Give the observed rVSVΔG-GFP/VSVG Hoechst (%) of CC(CN(C)C)CN1c2ccccc2CCc2ccccc21 (stereo not shown) [Trimipramine maleate] for HEK293T/ACE2 cells.
**Result** 99.90

* * *

Tested on: HEK293T/ACE2 cells
Conditions: human
Structures can show the parent of a compound that is named as a salt.
Please go through the items and note down their rVSVΔG-GFP/SARS2-S Hoechst (%).
Reply numerically in %, unit not repeated.

**Query** Give the observed rVSVΔG-GFP/SARS2-S Hoechst (%) of CN1CCN(CCCN2c3ccccc3Sc3ccc(Cl)cc32)CC1 [Prochlorperazine Maleate, Prochlorperazine dimaleate] for HEK293T/ACE2 cells.
**Result** 97.05

**Query** Give the observed rVSVΔG-GFP/SARS2-S Hoechst (%) of Clc1ccc2c(c1)C(N1CCNCC1)=Nc1ccccc1O2 for HEK293T/ACE2 cells.
**Result** 102.06

**Query** Give the observed rVSVΔG-GFP/SARS2-S Hoechst (%) of C[C@@H](NCCCc1cccc(C(F)(F)F)c1)c1cccc2ccccc12 [Cinacalcet hydrochloride] for HEK293T/ACE2 cells.
**Result** 97.33

**Query** Give the observed rVSVΔG-GFP/SARS2-S Hoechst (%) of CN1CCN(CCCN2c3ccccc3Sc3ccc(C(F)(F)F)cc32)CC1 [Trifluoperazine dihydrochloride] for HEK293T/ACE2 cells.
**Result** 107.56

**Query** Give the observed rVSVΔG-GFP/SARS2-S Hoechst (%) of Cc1ccc(NC(=O)c2ccc(CN3CCN(C)CC3)cc2)cc1Nc1nccc(-c2cccnc2)n1 [Imatinib Mesylate (STI571), Imatinib Mesylate] for HEK293T/ACE2 cells.
**Result** 96.53

**Query** Give the observed rVSVΔG-GFP/SARS2-S Hoechst (%) of O=C(c1ccc(OCCN2CCCCC2)cc1)c1c(-c2ccc(O)cc2)sc2cc(O)ccc12 [Raloxifene hydrochloride] for HEK293T/ACE2 cells.
**Result** 101.70

**Query** Give the observed rVSVΔG-GFP/SARS2-S Hoechst (%) of CN1CC2c3ccccc3Oc3ccc(Cl)cc3C2C1 (stereo not drawn) [Asenapine Maleate, Asenapine maleate] for HEK293T/ACE2 cells.
**Result** 98.20

**Query** Give the observed rVSVΔG-GFP/SARS2-S Hoechst (%) of OCCN1CCN(CCCN2c3ccccc3Sc3ccc(C(F)(F)F)cc32)CC1 [Fluphenazine hydrochloride, Fluphenazine dihydrochloride] for HEK293T/ACE2 cells.
**Result** 103.35

**Query** Give the observed rVSVΔG-GFP/SARS2-S Hoechst (%) of CCCCc1oc2ccc(NS(C)(=O)=O)cc2c1C(=O)c1ccc(OCCCN(CCCC)CCCC)cc1 [Dronedarone hydrochloride] for HEK293T/ACE2 cells.
**Result** 99.72

**Query** Give the observed rVSVΔG-GFP/SARS2-S Hoechst (%) of CC/C(=C(\c1ccccc1)c1ccc(OCCN(C)C)cc1)c1ccccc1 [Tamoxifen citrate] for HEK293T/ACE2 cells.
**Result** 99.67

**Query** Give the observed rVSVΔG-GFP/SARS2-S Hoechst (%) of CSc1ccc2c(c1)N(CCC1CCCCN1C)c1ccccc1S2 (stereo not drawn) [Thioridazine hydrochloride] for HEK293T/ACE2 cells.
**Result** 98.59

**Query** Give the observed rVSVΔG-GFP/SARS2-S Hoechst (%) of CN(C)CCOc1ccc(/C(=C(/CCCl)c2ccccc2)c2ccccc2)cc1 [Toremifene] for HEK293T/ACE2 cells.
**Result** 101.27

**Query** Give the observed rVSVΔG-GFP/SARS2-S Hoechst (%) of Fc1ccc([C@@H]2CCNC[C@H]2COc2ccc3c(c2)OCO3)cc1 [Paroxetine hydrochloride] for HEK293T/ACE2 cells.
**Result** 102.73

**Query** Give the observed rVSVΔG-GFP/SARS2-S Hoechst (%) of CNCCC=C1c2ccccc2CCc2ccccc21 [Nortriptyline hydrochloride] for HEK293T/ACE2 cells.
**Result** 81.23

**Query** Give the observed rVSVΔG-GFP/SARS2-S Hoechst (%) of Cc1c(-c2ccc(O)cc2)n(Cc2ccc(OCCN3CCCCCC3)cc2)c2ccc(O)cc12 [Bazedoxifene acetate] for HEK293T/ACE2 cells.
**Result** 88.96

Taken from paper PMC9721373.
